Test: protein stability index of a GFP-peptide fusion (yeast GPS) (PSI 1-4); higher = more stable; sorted into four equal gates, so the index is relative within each strain
Details: pdr5∆
Kind request: treat 3 as inclusive, so protein stability index at 3 or higher is true, anything lower is false.

macromolecule-sequence: RADTMDFKTDVDEPMTS [YJL039C/NUP192]
class-assignment: true
--
macromolecule-sequence: AKKKVLDVTKEAQANLL [RPO21]
class-assignment: false
--
macromolecule-sequence: VFYRMQQLRRALPDVVV [RPO31]
class-assignment: false
--
macromolecule-sequence: QSLGLDDLQKFNGIENQ [ISW2]
class-assignment: false
--
macromolecule-sequence: MTPVIEKIAAGYMQKPV [PRP28]
class-assignment: false
--
macromolecule-sequence: ESLRGILHVRAQYCYKN [SRP72]
class-assignment: false
--
macromolecule-sequence: LGIEAARYSIIREINYT [RPO31]
class-assignment: false
--
macromolecule-sequence: RYENNDDDERVEYNLFT [BRN1]
class-assignment: true
--
macromolecule-sequence: NAQQTFHIDHTKPSDLT [RPO21]
class-assignment: false
--
macromolecule-sequence: QYTQRLSKLEKALDRHE [SRP68]
class-assignment: false
--
macromolecule-sequence: NRRWTQRRGPLVVYAED [RPL4A]
class-assignment: false
--
macromolecule-sequence: TKSMVKIAEQYSKRIEE [RPN11]
class-assignment: false
--
macromolecule-sequence: FSERAAMFAALQQKQQQ [SWI1]
class-assignment: false
--
macromolecule-sequence: EFDSDDDDISDDEEDEI [RPN4]
class-assignment: true
--
macromolecule-sequence: YYQRLRHMVDDKIHARA [RPB2]
class-assignment: false
--
macromolecule-sequence: QLESIYFRILLPYERHM [SWI1]
class-assignment: false
--
macromolecule-sequence: GVVRYVMESGAKGCEVV [RPS3]
class-assignment: false
--
macromolecule-sequence: VSPNISSASPSALTSPT [SIR3]
class-assignment: false
--
macromolecule-sequence: SLLLSSVKESTGMSSMS [SRB4]
class-assignment: false
--
macromolecule-sequence: KKKDPVNQDKANNASQI [SNF12]
class-assignment: true
--
macromolecule-sequence: FILADAGLEITSDNLLT [RPP1B]
class-assignment: false
--
macromolecule-sequence: DENTSGKISKPRFLNKQ [PRP28]
class-assignment: true
--
macromolecule-sequence: DIRDSSCQGNVIYRNSL [YMR129W/POM152]
class-assignment: true
--
macromolecule-sequence: CIFNFLQQQTPVTIWLF [SME1]
class-assignment: false
--
macromolecule-sequence: RMRIFASNEVIAKSRYW [RPL20A]
class-assignment: false

###

Test: protein stability index of a GFP-peptide fusion (yeast GPS) (PSI 1-4); higher = more stable; sorted into four equal gates, so the index is relative within each strain
Settings: pdr5∆
Reported protein stability index values are given for each entry in this list.

macromolecule-sequence: MTPLLVNCLELLINTNF [PCI8]
protein stability index: 1.6
--
macromolecule-sequence: EVYNVIASDGSYVNYRH [RPO21]
protein stability index: 3.58
--
macromolecule-sequence: TRQASDLASSKEVLAKI [RPN5]
protein stability index: 2.96
--
macromolecule-sequence: PVIDTQIANEFNTQQGI [YDL116W/NUP84]
protein stability index: 2.99
--
macromolecule-sequence: QIRACKDLKHIIYYKFN [PRP8]
protein stability index: 1.73
--
macromolecule-sequence: PQQPMVKTKTIELIDYD [RET1]
protein stability index: 3.18
--
macromolecule-sequence: LAFDKLNVPVFQIVIEP [ARP7]
protein stability index: 2.23
--
macromolecule-sequence: THKVTDIYSHEYKVITS [YMR129W/POM152]
protein stability index: 1.97
--
macromolecule-sequence: GYLIQVLLTFLQDELHK [YCS4]
protein stability index: 2.02
--
macromolecule-sequence: FDSELIHLKQKLSESLD [SMC3]
protein stability index: 2.88
--
macromolecule-sequence: ENIQEGTSLTIQHIAAA [CDC53]
protein stability index: 3.11
--
macromolecule-sequence: EFIAHRLGLIPLQSMDI [RPB3]
protein stability index: 2.04
--
macromolecule-sequence: IETLDPALIRPGRIDRK [RPT2]
protein stability index: 3.18
--
macromolecule-sequence: KLEKLRNEKRMFLEFQS [SMC2]
protein stability index: 3.3
--
macromolecule-sequence: CRVCSSHTGLIRKYGLN [RPS29A]
protein stability index: 1.53
--
macromolecule-sequence: EDGTIESYNQNDWKLET [SIN4]
protein stability index: 3.02
--
macromolecule-sequence: KPGSTVMLLGTPDANLI [UBP6]
protein stability index: 3.58
--
macromolecule-sequence: LSGSISERIVDCIIRLP [FAS1]
protein stability index: 1.16
--
macromolecule-sequence: RKEPPATVEECVKLTVR [PRE6]
protein stability index: 1.67
--
macromolecule-sequence: GFETSKNIKIIMATNRL [RPT6]
protein stability index: 2.54
--
macromolecule-sequence: MFRYKTNLYKLKEERAI [PUP3]
protein stability index: 2.67
--
macromolecule-sequence: QFNKILPEPTEGFAADD [FAS1]
protein stability index: 3.07
--
macromolecule-sequence: KDYEAKTKAMSLSIEEN [POP1]
protein stability index: 2.55
--
macromolecule-sequence: PPLLVYKWTQGINNLSE [PRP8]
protein stability index: 3.11
--
macromolecule-sequence: RVNGSEFVHKYLGEGPR [RPT3]
protein stability index: 2.88
--
macromolecule-sequence: QNVNVPSAFNFTGNNST [YOR098C/NUP1]
protein stability index: 2.89
--
macromolecule-sequence: DWEDEEKYEDEDEEKIL [DSN1]
protein stability index: 2.94
--
macromolecule-sequence: GASTGNANTGFSFGGTQ [YGL172W/NUP49]
protein stability index: 2.12
--
macromolecule-sequence: DEDKNFPRSRSRSRSSI [ESC2]
protein stability index: 3.25
--
macromolecule-sequence: KRKYLDIPIDEMTLPTS [SSN2]
protein stability index: 2.81
--
macromolecule-sequence: ERLMTWKFKSLIEILRL [RRI2]
protein stability index: 2.01
--
macromolecule-sequence: PELNVSLNLTDDVISNA [MCD1]
protein stability index: 3.21
--
macromolecule-sequence: MSLRHFGHLMHYGNEHI [RPN1]
protein stability index: 1.38
--
macromolecule-sequence: QTWSYLSLYSTDLENSS [ECM29]
protein stability index: 2.25
--
macromolecule-sequence: HLSKSPADRPQGRRNSR [SIR4]
protein stability index: 2.85
--
macromolecule-sequence: IRNINVQDALLTNQLYK [SNF2]
protein stability index: 2.67
--
macromolecule-sequence: RRKKILNEIELDNLKLK [GRR1]
protein stability index: 3.04
--
macromolecule-sequence: EKVTIAPLVLLSALDHY [RPN8]
protein stability index: 1.63
--
macromolecule-sequence: EEDADQEESFSLNLGIG [SRB8]
protein stability index: 3.01
--
macromolecule-sequence: KLKECPFDMGGYFIING [RPB2]
protein stability index: 3.07
--
macromolecule-sequence: RSVRIPWYNNPVSCIIQ [PRP8]
protein stability index: 2.19
--
macromolecule-sequence: NKLGNDPSLNLKLLAKS [BRR2]
protein stability index: 2.56
--
macromolecule-sequence: LAKPVFHVGFIAKIKKV [RPO21]
protein stability index: 2.15
--
macromolecule-sequence: MTDMQIQWYKSLLEKDI [ISW2]
protein stability index: 2.35
--
macromolecule-sequence: PQWKRHLEEYGYLIQVL [YCS4]
protein stability index: 2.73
--
macromolecule-sequence: EKENRFEIVDREKNSLE [SMC4]
protein stability index: 2.93
--
macromolecule-sequence: KKQPSILVGGTLKDYQI [SNF2]
protein stability index: 2.71
--
macromolecule-sequence: LLRALKTNEESAKMILL [PRP8]
protein stability index: 2.98
--
macromolecule-sequence: MNFNTPQQNKTPFSFGT [YJL041W/NSP1]
protein stability index: 3
--
macromolecule-sequence: YFFYASRPEYSCTFWSD [YJL039C/NUP192]
protein stability index: 1.52
--
macromolecule-sequence: DGWVKLTYKSELSKSRA [YMR153W/NUP53]
protein stability index: 1.88
--
macromolecule-sequence: KRFMNTSQNPQRDAEIS [BRR2]
protein stability index: 3.03
--
macromolecule-sequence: IQSKRLRNKIAGYTTHL [RPS17A]
protein stability index: 3.41
--
macromolecule-sequence: QVSEVDPGRYNKVCRIE [RPB8]
protein stability index: 3.04
--
macromolecule-sequence: SEAKRTKFSNPAIPPVI [BRR2]
protein stability index: 2.25
--
macromolecule-sequence: ESKSLLNLFSNVLKAPF [SIR4]
protein stability index: 2.16
--
macromolecule-sequence: NEKLECISLGSTKLSRP [ITC1]
protein stability index: 2.64
--
macromolecule-sequence: AAAYSHELPRYGITHGL [RPL5]
protein stability index: 2.93
--
macromolecule-sequence: RHLPMYTEFIDSFIEKI [ITC1]
protein stability index: 2.69
--
macromolecule-sequence: NKLTILGRDYPIEVDEE [IRR1]
protein stability index: 2.56
